- Target under test: T1, human IL-12 (human, UniProt P29460 23-328; P29459 23-219)
- T1 construct: Recombinant (Peprotech); FLAG-tagged IL-12 in the flow cytometry assays, biotinylated in the IL-12Rβ2 assay; also called hIL-12
- T1 sequence 1: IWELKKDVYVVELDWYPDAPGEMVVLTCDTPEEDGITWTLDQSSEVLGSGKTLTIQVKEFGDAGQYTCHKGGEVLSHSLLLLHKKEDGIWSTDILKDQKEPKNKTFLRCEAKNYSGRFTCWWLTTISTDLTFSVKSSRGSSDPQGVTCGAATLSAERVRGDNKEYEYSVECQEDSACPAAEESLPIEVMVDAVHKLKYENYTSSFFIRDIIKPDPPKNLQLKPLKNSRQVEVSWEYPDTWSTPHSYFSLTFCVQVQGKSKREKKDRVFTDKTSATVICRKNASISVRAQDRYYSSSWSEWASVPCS
- T1 sequence 2: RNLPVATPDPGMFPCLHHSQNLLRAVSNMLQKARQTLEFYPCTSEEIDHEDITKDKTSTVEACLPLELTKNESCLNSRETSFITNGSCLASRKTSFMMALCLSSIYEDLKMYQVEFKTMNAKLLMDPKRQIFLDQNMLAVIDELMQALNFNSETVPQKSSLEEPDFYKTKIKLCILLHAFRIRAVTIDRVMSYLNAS
- Protocol summary: SPR, purified scFv captured via FLAG
Measured parameter: koff (s⁻¹)

INSERT INTO measurements (binder, u, measured) VALUES
  ('scFv CE-B1 (scFv, scFv-80 variant: VH F29L; not shown: proprietary C-terminal FLAG tag) scFv: QVQLVQSGAEVKKPGASVKVSCKASGYTLTDYYLHWVRQAPGQGLEWMGWIDPENGDTEYAPKFQGRVTMTTDTSTSTAYMELRSLRSDDTAVYYCNANKELRYFDVWGQGTMVTVSSGGGGSGGGGSGGGGSEIVMTQSPATLSVSPGERATLSCRASQSISINLHWYQQKPGQAPRLLIYFASQSISGIPARFSGSGSGTEFTLTISSLQSEDFAVYYCQQSNSFPLTFGGGTKVEIKR', 's⁻¹', 0.00018),
  ('scFv CP-A6 (scFv, scFv-80 variant: VH Y59H; not shown: proprietary C-terminal FLAG tag) scFv: QVQLVQSGAEVKKPGASVKVSCKASGYTFTDYYLHWVRQAPGQGLEWMGWIDPENGDTEHAPKFQGRVTMTTDTSTSTAYMELRSLRSDDTAVYYCNANKELRYFDVWGQGTMVTVSSGGGGSGGGGSGGGGSEIVMTQSPATLSVSPGERATLSCRASQSISINLHWYQQKPGQAPRLLIYFASQSISGIPARFSGSGSGTEFTLTISSLQSEDFAVYYCQQSNSFPLTFGGGTKVEIKR', 's⁻¹', 0.00012),
  ('scFv AX-G4 (scFv, scFv-80 variant: VL S26P; not shown: proprietary C-terminal FLAG tag) scFv: QVQLVQSGAEVKKPGASVKVSCKASGYTFTDYYLHWVRQAPGQGLEWMGWIDPENGDTEYAPKFQGRVTMTTDTSTSTAYMELRSLRSDDTAVYYCNANKELRYFDVWGQGTMVTVSSGGGGSGGGGSGGGGSEIVMTQSPATLSVSPGERATLSCRAPQSISINLHWYQQKPGQAPRLLIYFASQSISGIPARFSGSGSGTEFTLTISSLQSEDFAVYYCQQSNSFPLTFGGGTKVEIKR', 's⁻¹', 0.00031);
